- Study system: BACE1 (Homo sapiens, UniProt P56817)
- Construct: endogenous in cells
- Sequence (P56817 46-501): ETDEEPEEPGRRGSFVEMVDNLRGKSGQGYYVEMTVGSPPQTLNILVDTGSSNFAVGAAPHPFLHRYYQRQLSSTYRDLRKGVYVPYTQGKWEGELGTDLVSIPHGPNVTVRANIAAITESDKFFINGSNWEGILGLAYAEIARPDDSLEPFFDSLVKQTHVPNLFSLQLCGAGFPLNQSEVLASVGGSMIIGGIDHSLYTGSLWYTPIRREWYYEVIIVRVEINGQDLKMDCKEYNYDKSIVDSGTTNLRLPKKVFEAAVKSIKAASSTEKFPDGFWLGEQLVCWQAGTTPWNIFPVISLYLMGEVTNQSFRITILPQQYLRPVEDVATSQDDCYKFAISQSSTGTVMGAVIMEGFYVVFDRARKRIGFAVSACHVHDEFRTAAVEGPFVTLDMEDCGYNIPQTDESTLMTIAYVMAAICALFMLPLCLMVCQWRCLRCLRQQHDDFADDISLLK
- Procedure summary: Cellular Aβ-lowering assay (Abeta 40 AlphaLISA)
- Stated conditions: HEK293 APP cells; 18-20 hrs incubation; Aβ 40 in culture supernatants by AlphaLISA; read-out: BACE1 cell act. Aβ40 IC50
pIC50: −log10 of the molar value. Structures can show the parent of a compound that is named as a salt.
Would you mind sorting the entries by pIC50 according to these classes? 1: < 6; 2: ≥ 6 and < 7; 3: ≥ 7

{"Compound": "C[C@]1(c2cc(NC(=O)c3cnc(C(F)F)cn3)ccc2F)N=C(N)O[C@H](C(F)(F)F)[C@@H]1F", "Assigned class": 3}
{"Compound": "CCn1cc(C#Cc2ccc(F)c([C@]3(CF)C[C@@H](C(F)(F)F)OC(N)=N3)c2)cn1", "Assigned class": 1}
{"Compound": "CC#Cc1cncc(-c2ccc(F)c([C@]3(C)C[C@@H](C(F)(F)F)OC(N)=N3)c2)c1", "Assigned class": 2}
{"Compound": "Cc1cc(F)c([C@]2(C)C[C@@H](C(F)(F)F)OC(N)=N2)cc1-c1cccc(C#N)c1F", "Assigned class": 1}
{"Compound": "CC#Cc1cncc(-c2csc([C@]3(C)C[C@@H](C(F)(F)F)OC(N)=N3)c2)c1 [Example 29, Hydrochloride]", "Assigned class": 2}
{"Compound": "C[C@@]1(c2c(F)ccc(NC(=O)c3ccc(C#N)cn3)c2F)C[C@@H](C(F)(F)F)OC(N)=N1", "Assigned class": 3}
{"Compound": "Cc1cc(F)c([C@]2(C)C[C@@H](C(F)(F)F)OC(N)=N2)cc1C#Cc1nn(C(F)F)cc1Cl", "Assigned class": 2}
{"Compound": "NC1=N[C@](CF)(c2cc(C#Cc3ncc(Cl)cn3)ccc2F)C[C@@H](C(F)(F)F)O1", "Assigned class": 2}
{"Compound": "NC1=N[C@](CF)(c2cc(-c3nc4ccc(Cl)cc4o3)ccc2F)C[C@@H](C(F)(F)F)O1", "Assigned class": 1}
{"Compound": "C[C@@]1(c2sc(-c3cccc(C#N)c3)cc2Cl)C[C@@H](C(F)(F)F)OC(N)=N1", "Assigned class": 2}
{"Compound": "C[C@@]1(c2cc(-c3nc4ccc(Cl)cc4o3)ccc2F)C[C@@H](C(F)(F)F)OC(N)=N1", "Assigned class": 2}
{"Compound": "C[C@@]1(c2cc(-c3ccccc3)ccc2F)C[C@@H](C(F)(F)F)OC(N)=N1", "Assigned class": 1}
